Tested on: SW-620 colon
Experiment: NCI tumour cell line growth inhibition, 48 h; in the data active means GI50 below about 0.43 µM; inactive means the rest
Field 'call' accepts label 1 for active, label 0 for inactive

Here are 6 molecules together with their reported answers.
{"molecule": "O=c1cc(N2CCN(CCCCCOc3cc(O)c4c(=O)cc(-c5ccccc5)oc4c3)CC2)c2ccccc2o1", "group-label": "label 0"}
{"molecule": "CCCN(CCC)c1ccc(/C=C/c2ccc3cc(OCC)ccc3n2)cc1", "group-label": "label 0"}
{"molecule": "N#Cc1ccc2c(c1)C(=O)c1c-2n(CCCCl)c(=O)c2cc([N+](=O)[O-])ccc12", "group-label": "label 0"}
{"molecule": "Cc1ccc(NC2=C(Cl)C(=O)N(Cc3ccc(Cl)cc3)C2=O)cc1O", "group-label": "label 0"}
{"molecule": "C=C(NC(=O)C(=C)NC(=O)c1csc(C2=NC3c4csc(n4)C4NC(=O)c5csc(n5)C(C(C)(O)C(C)O)NC(=O)C5CSC(=N5)C(=CC)NC(=O)C(C(C)O)NC(=O)c5csc(n5)C3(CC2)NC(=O)C(C)NC(=O)C(=C)NC(=O)C(C)NC(=O)C(C(C)CC)NC2C=Cc3c(C(C)O)cc(nc3C2O)C(=O)OC4C)n1)C(N)=O (centres undefined)", "group-label": "label 0"}
{"molecule": "C[C@]12CC[C@@H]3c4cc(-c5ccc(F)cc5)c(O)cc4CC[C@H]3[C@@H]1CC[C@@H]2O", "group-label": "label 0"}

Ask | Look up the recorded call for C[C@@H](O)[C@H](NC(=O)N[C@@H](CC(N)=O)c1nc([C@@H](N)CO)no1)C(=O)O in this test.
Reply | label 0

Ask | Look up the recorded call for COc1ccc(/C(COc2ccc3c(=O)c(-c4ccccc4)coc3c2)=N\O)cc1 in this test.
Reply | label 0

Ask | Look up the recorded call for COc1ccc(-c2cc(-c3cccn3C)c(C#N)c(=O)[nH]2)cc1OC in this test.
Reply | label 0

Ask | Look up the recorded call for COC(=O)c1cc2c3ccccc3n3c(=O)c4cc5ccccc5nc4c(n1)c23 in this test.
Reply | label 0

====

Test system: OVCAR-3 ovarian
Assay: NCI tumour cell line growth inhibition, 48 h
Where a SMILES comes first, the peptide text is derived from it. [ ]: non-standard residue; d: D form. The star is where a group is joined. Iva = CC[C](C)(N)C(=O)O; Boc = CC(C)(C)OC(=O)*; X52 = C1CCC(=NO*)C1
Measured TGI by item

The cases that follow already have their TGI on record.
{"compound": "C1CSCCSCCSCCSC1", "system-tested": "OVCAR-3 ovarian", "TGI": "> 100 µM"}
{"compound": "O=C(O)c1ccc(Oc2nccc(-c3c(-c4ccc(F)cc4)ncn3C3CCNCC3)n2)cc1", "system-tested": "OVCAR-3 ovarian", "TGI": "> 25 µM"}
{"compound": "COc1ccc(P2(=S)Oc3ccccc3-c3ccccc3O2)cc1", "system-tested": "OVCAR-3 ovarian", "TGI": "0.493 µM"}
{"compound": "CC1(C)CCc2c(c(N=Nc3ccc(S(N)(=O)=O)cc3)c3ccccc3c2O)O1", "system-tested": "OVCAR-3 ovarian", "TGI": "32.1 µM"}
{"compound": "C=CC1CCC[N+]1(CC(=O)OCC)Cc1ccccc1 (centres undefined)", "system-tested": "OVCAR-3 ovarian", "TGI": "> 100 µM"}
{"compound": "O=C(O)CCCSc1ccccc1", "system-tested": "OVCAR-3 ovarian", "TGI": "> 100 µM"}

Ask | Return reported TGI for target or system OVCAR-3 ovarian, item CCC(C)(NC(=O)C(C)NC(=O)OC(C)(C)C)C(=O)NC(C)C(=O)NC(C)(CC)C(=O)ON=C1CCCC1 (centres undefined) (Boc-A[Iva]A[Iva]-X52; configuration not given here) .
Reply | > 100 µM

Ask | Return reported TGI for target or system OVCAR-3 ovarian, item Cc1nc2sc(C(=O)Nc3cccc4ccccc34)c(N)c2cc1C(O)c1ccccc1 (centres undefined) .
Reply | 0.0976 µM

Ask | Return reported TGI for target or system OVCAR-3 ovarian, item Cc1cccc(C)c1NC(=O)C(=O)CC(=O)/C=C/c1ccccc1 .
Reply | > 100 µM

Ask | Return reported TGI for target or system OVCAR-3 ovarian, item O=C(Nc1ccccc1)c1cc2ccccc2c(N=Nc2ccc([N+](=O)[O-])cc2)c1O .
Reply | > 100 µM

Ask | Return reported TGI for target or system OVCAR-3 ovarian, item COc1cc(-c2ccc(-c3ccc(C(=N)N)nc3)s2)cc(OC)c1OC .
Reply | 6.35 µM

Ask | Return reported TGI for target or system OVCAR-3 ovarian, item COC(=O)[C@]12CC[C@H]3CC[C@H]([C@H]31)[C@H](c1ccccc1)N2 .
Reply | 29.3 µM

Ask | Return reported TGI for target or system OVCAR-3 ovarian, item COc1cccc(C2c3cc4c(cc3OC(N3CCOCC3)C2C)OCO4)c1OC (centres undefined) .
Reply | 36.7 µM

Ask | Return reported TGI for target or system OVCAR-3 ovarian, item O=C1c2ccccc2C(=O)N1CC1S(=O)(=O)OCCOS1(=O)=O .
Reply | > 100 µM

Ask | Return reported TGI for target or system OVCAR-3 ovarian, item CC(C)(C)CC(C)(C)c1cc2c(O)c(c1)Cc1cc(C(C)(C)CC(C)(C)C)cc(c1O)Cc1cc(C(C)(C)CC(C)(C)C)cc(c1O)Cc1cc(C(C)(C)CC(C)(C)C)cc(c1O)Cc1cc(C(C)(C)CC(C)(C)C)cc(c1O)C2 .
Reply | > 100 µM

Ask | Return reported TGI for target or system OVCAR-3 ovarian, item CCC(C(=O)C(=O)C(CC)P1(=O)OC(C)(C)CN1C(C)(C)C)P1(=O)OC(C)(C)CN1C(C)(C)C (centres undefined) .
Reply | > 100 µM

Ask | Return reported TGI for target or system OVCAR-3 ovarian, item O=C1/C(=C/c2ccc(OC(=O)c3ccccc3)cc2)CCC/C1=C\c1ccc(OC(=O)c2ccccc2)cc1 .
Reply | > 100 µM

Ask | Return reported TGI for target or system OVCAR-3 ovarian, item Cc1cccc2c1C(=O)[C@](C)([C@]1(C)Nc3cccc(C)c3C1=O)N2 .
Reply | 83.3 µM

Ask | Return reported TGI for target or system OVCAR-3 ovarian, item CC1C/C(=C\c2ccc(OC(=O)C(C)(C)C)cc2)C(=O)/C(=C/c2ccc(OC(=O)C(C)(C)C)cc2)C1 (centres undefined) .
Reply | > 100 µM
